# Target or test system: Human RSK2 (Homo sapiens (Human), UniProt P51812);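 further: recombinant human RSK2 phosphorylating a substrate peptide, 90 min at 28 °C, leftover ATP read by luminescence, RLU scaled between no-kinase background and uninhibited kinase controls, 4-parameter fit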
# Sequence (P51812 whole entry): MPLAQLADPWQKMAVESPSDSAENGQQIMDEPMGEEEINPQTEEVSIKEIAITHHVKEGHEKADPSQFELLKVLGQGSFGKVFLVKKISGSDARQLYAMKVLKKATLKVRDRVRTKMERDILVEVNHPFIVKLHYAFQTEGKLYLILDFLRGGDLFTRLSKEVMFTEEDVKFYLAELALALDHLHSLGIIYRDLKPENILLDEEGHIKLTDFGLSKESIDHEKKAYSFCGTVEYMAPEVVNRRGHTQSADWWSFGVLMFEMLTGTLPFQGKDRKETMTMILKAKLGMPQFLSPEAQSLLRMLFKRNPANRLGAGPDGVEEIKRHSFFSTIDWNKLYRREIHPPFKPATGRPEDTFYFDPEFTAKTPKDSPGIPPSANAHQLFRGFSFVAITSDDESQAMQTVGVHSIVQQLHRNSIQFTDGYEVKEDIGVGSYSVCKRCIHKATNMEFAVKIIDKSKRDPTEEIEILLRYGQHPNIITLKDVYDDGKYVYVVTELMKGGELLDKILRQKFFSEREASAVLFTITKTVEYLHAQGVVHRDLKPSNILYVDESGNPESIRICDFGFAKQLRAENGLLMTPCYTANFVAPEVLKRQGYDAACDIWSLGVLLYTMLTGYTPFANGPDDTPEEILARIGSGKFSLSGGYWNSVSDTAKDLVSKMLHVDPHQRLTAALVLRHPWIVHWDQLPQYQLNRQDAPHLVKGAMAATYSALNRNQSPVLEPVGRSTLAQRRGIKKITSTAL
pIC50: −log10 of the molar value.
Use 7 as the dividing line for pIC50, with the line itself on the Criterion met side and lower values as Criterion not met.

> print(dat)
                                   compound     assigned.label
1  CC1CNC(=O)c2cc3ccc(C(=O)Nc4cnn(Cc5ccccc5)c4)cc3n2C1 (stereo not drawn) [Example 135]      Criterion met
2  O=C(Nc1cccc(N2CCOCC2)c1)c1ccc2cc3n(c2c1)CCCNC3=O [Example 7]      Criterion met
3  Cn1ccc(NC(=O)c2ccc3cc4n(c3c2)CCCNC4=O)n1 [Example 11]  Criterion not met
4  O=C(Nc1ccncc1)c1ccc2cc3n(c2c1)CCCNC3=O [Example 156]      Criterion met
5  Cc1nn(C)c2ncc(NC(=O)c3ccc4cc5n(c4c3)CCCNC5=O)cc12 [Example 189]  Criterion not met
6  C[C@H]1CNC(=O)c2cc3ccc(C(=O)Nc4cccnc4)cc3n2[C@H]1C (relative stereo) [Example 150]  Criterion not met
7  O=C(Nc1ccc2scnc2c1)c1ccc2cc3n(c2c1)CCCNC3=O [Example 203]  Criterion not met
8  CN(C)c1cccc(Cn2cc(NC(=O)c3ccc4cc5n(c4c3)CCCNC5=O)cn2)c1 [Example 120]      Criterion met

Cited source for all entries: patent US9150577B2
